# Test system: male C57BL mice
# Assay comment: Screening for intestinal growth effects (small intestine and colon mass relative to body weight, small intestine-colon sensitivity index)
# Assay type: in vivo
# Measurement conditions: male C57BL mice, 30 nmol/kg s.c. twice daily for ten days; third value column
No end group written: not given here.
Property measured: small intestine-colon sensitivity index, (SI/Colon)X/(SI/Colon)[Gly2]GLP-2 % (% [Gly2]GLP-2)
Lab book: enter the figure in % [Gly2]GLP-2, no units written.

Query: For the substance [Gly2, Thr7, Leu10, Ser11, Ala24]hGLP-2(1-30)-NH2 (HGDGSFTDELSTILDNLAARDFIAWLIQTK-NH2) [Compound 1831] , what small intestine-colon sensitivity index, (SI/Colon)X/(SI/Colon)[Gly2]GLP-2 % is on record?
Reply: 88

Query: For the substance [Gly2, Glu3, Ser8, Leu10, Ala11,16,24,28]hGLP-2(1-33)-(Lys)6-NH2 (HGEGSFSSELATILDALAARDFIAWLIATKITDKKKKKK-NH2) [Compound 1849] , what small intestine-colon sensitivity index, (SI/Colon)X/(SI/Colon)[Gly2]GLP-2 % is on record?
Reply: 115

Query: For the substance [Gly2, Glu3, Ser8,11, Leu10, Ala16,24,28]hGLP-2(1-33)-(Lys)6-NH2 (HGEGSFSSELSTILDALAARDFIAWLIATKITDKKKKKK-NH2) [Compound 1846] , what small intestine-colon sensitivity index, (SI/Colon)X/(SI/Colon)[Gly2]GLP-2 % is on record?
Reply: 118
